TEST TARGET: Human PKMYT1 (Homo sapiens, UniProt Q99640)
Construct: Human PKMYT1 75-362 was cloned as a TEV cleavable 6xHis fusion; 6xHis (TEV cleavable) (cleaved yes); made in house; host or cells: bacterial cells
Sequence (Q99640 75-362): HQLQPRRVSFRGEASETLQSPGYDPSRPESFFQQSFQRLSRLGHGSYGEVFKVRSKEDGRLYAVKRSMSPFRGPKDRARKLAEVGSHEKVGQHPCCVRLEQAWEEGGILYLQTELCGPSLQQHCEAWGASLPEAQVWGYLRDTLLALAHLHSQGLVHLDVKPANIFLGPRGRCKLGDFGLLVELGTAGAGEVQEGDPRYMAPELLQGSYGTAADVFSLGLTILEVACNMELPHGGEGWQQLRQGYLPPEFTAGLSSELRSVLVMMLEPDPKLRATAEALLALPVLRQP
EXPERIMENT: PKMYT1 biochemical ADP-Glo enzymatic assay
RUN PARAMETERS: ADP-Glo; 15 nM PKMYT1 kinase domain, 500 µM ATP, 60 minutes at 26° C.; banded
Structures can show the parent of a compound that is named as a salt.
MEASURED METRIC: IC50

>>> test_result("Cc1cn(-c2cnc(Cl)cc2Br)nc1Nc1ncc(C(=O)Nc2c(C)ccc(O)c2C)s1 [BAA-378]")
"50 to 1000 nM"
>>> test_result("Cc1ccc(O)c(C)c1NC(=O)c1cnc(Nc2ccn(CC(=O)NCCN3CCCCC3)n2)s1 [BAA-168, (hydrochloride)]")
"50 to 1000 nM"
>>> test_result("Cc1ccc(O)c(C)c1NC(=O)c1cnc(Nc2ccn(CC(=O)NC3CCCC3)n2)s1 [BAA-192]")
"< 50 nM"
>>> test_result("Cc1ccc(O)c(C)c1NC(=O)c1cnc(Nc2ccn(CC(=O)N3CCNC(C)(C)C3)n2)s1 [BAA-229]")
"< 50 nM"
>>> test_result("Cc1ccc(O)c(C)c1NC(=O)c1cnc(Nc2ccn(CC(=O)NC[C@@H](C)O)n2)s1 [BAA-170]")
"< 50 nM"
>>> test_result("Cc1ccc(O)c(C)c1NC(=O)c1cnc(Nc2ccc(N3CCC(F)(F)CC3)cn2)s1 [BAA-308]")
"50 to 1000 nM"
>>> test_result("COc1ccc(CC(=O)N2CCC(CNc3ncc(C(=O)Nc4c(C)ccc(O)c4C)s3)CC2)cc1 [BAA-213]")
"50 to 1000 nM"
>>> test_result("Cc1ccc(O)c(C)c1NC(=O)c1cnc(NCc2ccccn2)s1 [BAA-349]")
"50 to 1000 nM"
>>> test_result("Cc1ccc(O)c(C)c1NC(=O)c1cnc(Nc2cc(C(C)(C)O)n(C)n2)s1 [BAA-256]")
"< 50 nM"
>>> test_result("Cc1ccc(O)c(C)c1NC(=O)c1cnc(NCC2CCN(C(=O)Cc3ccc(Cl)cc3)CC2)s1 [BAA-214]")
"50 to 1000 nM"
>>> test_result("Cc1ccc(O)c(C)c1NC(=O)c1cnc(Nc2cc(Cl)cc(NC(=O)C(C)(C)C)n2)s1.Cl [BAA-334, hydrochloride]")
"50 to 1000 nM"
>>> test_result("Cc1ccc(O)c(C)c1NC(=O)c1cnc(Nc2ccon2)s1 [BAA-009]")
"< 50 nM"
>>> test_result("Cc1ccc(O)c(C)c1NC(=O)c1cnc(Nc2ccn(CC(=O)N3CCN(C(=O)CC(C)C)CC3)n2)s1 [BAA-198]")
"< 50 nM"
>>> test_result("Cc1ccc(O)c(C)c1NC(=O)c1cnc(Nc2ccn(C3CCC3)n2)s1 [BAA-013]")
"< 50 nM"
>>> test_result("Cc1ccc(O)c(C)c1NC(=O)c1cnc(Nc2ccn(CC(=O)NCC3CCN(C(=O)OC(C)(C)C)CC3)n2)s1 [BAA-157]")
"50 to 1000 nM"
>>> test_result("Cc1ccc(O)c(C)c1NC(=O)c1cnc(Nc2cc3ccc(O)cn3n2)s1 [BAA-343]")
"50 to 1000 nM"
>>> test_result("Cc1ccc(O)c(C)c1NC(=O)c1cnc(Nc2cc(C(N)=O)nn2C)s1 [BAA-131]")
"< 50 nM"
